Molecular target: DNA polymerase catalytic subunit (Human cytomegalovirus (strain AD169) (HHV-5) (Human herpesvirus 5), UniProt P08546)
Experiment: HCMV Polymerase LANCE TR-FRET Assay: The assay conditions are the following: 10 mM HEPES pH 7.5, 25 mM KCl, 7.5 mM NaCl, 5 mM MgCl2, 0.2 mg BSA/mL, 1 mM TCEP, 1.5% glycerol, 5% DMSO, 235 nM dATP, 350 nM dCTP, 350 nM dGTP, 235 nM dTTP, 12 nM biotin-16-dUTP, 23.5 nM Dig-primer/template, 2 nM GST-UL54. The assay volume is 10 μL. Each reagent is added as follow: 4 μL a+3 μL b+3 μL c; a: compound diluted in compound dilution buffer to obtain 12.5% DMSO; b: enzyme (GST-UL54) in 10 mM Hepes pH 7.5, 25 mM KCl, 5 mM MgCl2, 25 mM NaCl, 5% Glycerol, 0.67 mg BSA/mL, 1 mM TCEP w/o DMSO (2 nM GST-UL54 is present in the assay); c: substrate in 10 mM HEPES pH 7.5, 25 mM KCl, 5 mM MgCl2, 1 mM TCEP, 783 nM dATP, 1166 nM dCTP, 1166 nM dGTP, 783 nM dTTP, 40 nM biotin-16-dUTP, 78 nM Dig-primer (5'-/Dig/AGC TCG TTT AGT GAA CC-3')/template (5'-GAGGTCAAAACAGCGTGGATGGCGTCTCCAGGCGATCTGACGGTTCACTAAACGAGCT-3') w/o DMSO. The primer and template are annealed in 10 mM Tris-HCl pH 7.5, 50 mM NaCl at a respective concentration of 50 μM. They are incubated at 95 °C. for 5 min in a dry batch block. The block is removed from the dry bath and allowed to cool to RT. Aliquots are made and stored at −20 °C. To perform the assay, 3 μL of the enzyme solution is added to columns 2-12 and 14-24. The enzyme is substituted by the blank solution (b solution without enzyme) for columns 1 and 13 (blanks). The plate is centrifuged at 200×g for 30 sec. 3 μL of substrate solution is added to each well. The plate is centrifuged at 200×g for 30 sec. Plates are incubated at 37 °C. for 30 min. 5 μL of conjugate solution is added (25 mM Hepes pH 7.5, 0.1 M NaCl, 0.25% Tween-20, 1 mg/mL BSA, 12 mM EDTA, 24 nM Sreptavidin-APC, 342 ng/mL Anti-Dig-Europium). The plates are incubated at RT for at least 120 min. The signal is read on the Envision plate reader (Perkin-Elmer) or equivalent.
measure.name: pIC50
# pIC50 = -log10(concentration in molar units)

>>> numeric_result("CC1(C)CN(C(=O)Cn2c(=O)c(C(=O)NCc3ccc(Cl)cc3)cc3c(OC[C@@H]4CCC(=O)N4)ccnc32)C1")
7.21
>>> numeric_result("Cn1cnc(-c2cc3cc(C(=O)NCc4ccc(Cl)cc4)c(=O)n(CC(=O)N4CC(C)(F)C4)c3nc2N)c1")
7.11
>>> numeric_result("CC1(C)CN(C(=O)Cn2c(=O)c(C(=O)NCc3ccc(Cl)cc3)cc3c(Oc4cccnc4)ccnc32)C1")
6.55
>>> numeric_result("O=C(NCc1ccc(Cl)cc1)c1cc2cccnc2n(CC(=O)N2CC3(CC3)C2)c1=O")
6.55
>>> numeric_result("CC1(C)CN(C(=O)Cn2c(=O)c(C(=O)NCc3ccc(Cl)cc3)cc3cc(-c4nn[nH]n4)cnc32)C1")
7.52

[Q] Give the measured pIC50 of Cn1cc(-c2cnc3c(cc(C(=O)NCc4ccc(Cl)cc4)c(=O)n3CC(=O)N3CC(C)(C)C3)c2N2CC(O)C2)cn1 .
[A] 6.74

[Q] Another compound: Cn1cc(-c2cc3cc(C(=O)NCc4ccc(Cl)cc4)c(=O)n(CC(=O)N4CC(C)(O)C4)c3nc2N)cn1
[A] 6.96

[Q] Same read-out for COc1c(-c2cnn(C)c2)cnc2c1cc(C(=O)NCc1ccc(Cl)cc1)c(=O)n2CC(=O)N1CCC(CO)C1 (stereo unspecified) ?
[A] 6.85

[Q] Then this compound: COc1cc(N)nc2c1cc(C(=O)NCc1ccc(Cl)cc1)c(=O)n2CC(=O)N(C)CC1(CO)COC1
[A] 7.66

[Q] And for CC1(F)CN(C(=O)Cn2c(=O)c(C(=O)NCc3ccc(C#N)cc3)cc3cc(-c4c[nH]cn4)cnc32)C1 ?
[A] 6.49

[Q] Same for CC(C)c1ccnc2c1cc(C(=O)NCc1ccc(Cl)cc1)c(=O)n2CC(=O)N1CC(C)(C)C1
[A] 6.70

###

Molecular target: DNA polymerase catalytic subunit (Human cytomegalovirus (strain AD169) (HHV-5) (Human herpesvirus 5), UniProt P08546)
Sequence (P08546 whole entry): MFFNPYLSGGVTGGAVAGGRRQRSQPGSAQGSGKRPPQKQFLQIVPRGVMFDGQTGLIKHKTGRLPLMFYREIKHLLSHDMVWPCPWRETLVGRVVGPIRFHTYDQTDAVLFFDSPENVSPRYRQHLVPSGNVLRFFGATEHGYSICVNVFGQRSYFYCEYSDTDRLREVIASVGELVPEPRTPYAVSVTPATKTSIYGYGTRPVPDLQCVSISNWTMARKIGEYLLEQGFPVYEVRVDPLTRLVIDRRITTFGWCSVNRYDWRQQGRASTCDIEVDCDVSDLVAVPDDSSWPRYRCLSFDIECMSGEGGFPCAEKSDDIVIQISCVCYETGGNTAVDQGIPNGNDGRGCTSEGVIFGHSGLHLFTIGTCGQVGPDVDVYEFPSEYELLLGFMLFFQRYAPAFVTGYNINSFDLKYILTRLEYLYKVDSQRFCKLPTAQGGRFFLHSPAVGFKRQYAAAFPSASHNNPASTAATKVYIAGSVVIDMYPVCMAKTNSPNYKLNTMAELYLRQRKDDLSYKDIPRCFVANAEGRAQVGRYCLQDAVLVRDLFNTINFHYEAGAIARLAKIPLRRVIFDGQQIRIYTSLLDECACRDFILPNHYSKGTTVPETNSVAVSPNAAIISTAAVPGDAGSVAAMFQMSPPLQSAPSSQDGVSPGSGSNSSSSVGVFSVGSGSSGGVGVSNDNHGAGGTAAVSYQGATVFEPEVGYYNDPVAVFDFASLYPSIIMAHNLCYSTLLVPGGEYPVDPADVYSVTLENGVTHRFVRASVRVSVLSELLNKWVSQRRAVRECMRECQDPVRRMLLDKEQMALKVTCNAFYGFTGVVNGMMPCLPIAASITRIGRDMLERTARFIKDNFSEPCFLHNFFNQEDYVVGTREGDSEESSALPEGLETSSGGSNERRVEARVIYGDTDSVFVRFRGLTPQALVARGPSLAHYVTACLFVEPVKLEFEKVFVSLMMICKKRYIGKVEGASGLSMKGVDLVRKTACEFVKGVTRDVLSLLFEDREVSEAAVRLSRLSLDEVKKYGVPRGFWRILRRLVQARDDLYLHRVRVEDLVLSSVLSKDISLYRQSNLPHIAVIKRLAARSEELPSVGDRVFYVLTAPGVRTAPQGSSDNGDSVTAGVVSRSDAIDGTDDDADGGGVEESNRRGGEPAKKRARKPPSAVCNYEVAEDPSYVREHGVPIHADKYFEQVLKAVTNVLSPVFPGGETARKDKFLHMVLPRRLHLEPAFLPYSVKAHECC
Assay: HCMV Polymerase LANCE TR-FRET Assay: The assay conditions are the following: 10 mM HEPES pH 7.5, 25 mM KCl, 7.5 mM NaCl, 5 mM MgCl2, 0.2 mg BSA/mL, 1 mM TCEP, 1.5% glycerol, 5% DMSO, 235 nM dATP, 350 nM dCTP, 350 nM dGTP, 235 nM dTTP, 12 nM biotin-16-dUTP, 23.5 nM Dig-primer/template, 2 nM GST-UL54. The assay volume is 10 μL. Each reagent is added as follow: 4 μL a+3 μL b+3 μL c; a: compound diluted in compound dilution buffer to obtain 12.5% DMSO; b: enzyme (GST-UL54) in 10 mM Hepes pH 7.5, 25 mM KCl, 5 mM MgCl2, 25 mM NaCl, 5% Glycerol, 0.67 mg BSA/mL, 1 mM TCEP w/o DMSO (2 nM GST-UL54 is present in the assay); c: substrate in 10 mM HEPES pH 7.5, 25 mM KCl, 5 mM MgCl2, 1 mM TCEP, 783 nM dATP, 1166 nM dCTP, 1166 nM dGTP, 783 nM dTTP, 40 nM biotin-16-dUTP, 78 nM Dig-primer (5'-/Dig/AGC TCG TTT AGT GAA CC-3')/template (5'-GAGGTCAAAACAGCGTGGATGGCGTCTCCAGGCGATCTGACGGTTCACTAAACGAGCT-3') w/o DMSO. The primer and template are annealed in 10 mM Tris-HCl pH 7.5, 50 mM NaCl at a respective concentration of 50 μM. They are incubated at 95 °C. for 5 min in a dry batch block. The block is removed from the dry bath and allowed to cool to RT. Aliquots are made and stored at −20 °C. To perform the assay, 3 μL of the enzyme solution is added to columns 2-12 and 14-24. The enzyme is substituted by the blank solution (b solution without enzyme) for columns 1 and 13 (blanks). The plate is centrifuged at 200×g for 30 sec. 3 μL of substrate solution is added to each well. The plate is centrifuged at 200×g for 30 sec. Plates are incubated at 37 °C. for 30 min. 5 μL of conjugate solution is added (25 mM Hepes pH 7.5, 0.1 M NaCl, 0.25% Tween-20, 1 mg/mL BSA, 12 mM EDTA, 24 nM Sreptavidin-APC, 342 ng/mL Anti-Dig-Europium). The plates are incubated at RT for at least 120 min. The signal is read on the Envision plate reader (Perkin-Elmer) or equivalent.
Reported values of pIC50 for individual entries
Would you please state pIC50, meaning minus log10 of the concentration in mol/L, as a bare number?

Known results for compounds:
>>> numeric_result("COc1c(-c2sc(C)nc2C)cnc2c1cc(C(=O)NCc1ccc(Cl)cc1)c(=O)n2CC(=O)N1CC(C)(C)C1")
5.92
>>> numeric_result("NC(=O)[C@@H]1C[C@H](F)CN1C(=O)CCn1c(=O)c(C(=O)NCc2ccc(Cl)cc2)cc2cccnc21")
6.68
>>> numeric_result("Cn1cc(-c2cnc3c(c2)cc(C(=O)NCc2ccc(Cl)cc2)c(=O)n3CC(=O)N2CC(F)(CF)C2)cn1")
7.23
>>> numeric_result("CC1(C)CN(C(=O)Cn2c(=O)c(C(=O)NCc3ccc(Cl)cc3)cc3c(CCN4CCC4)ccnc32)C1")
6.55
>>> numeric_result("NCC1CCN(C(=O)Cn2c(=O)c(C(=O)NCc3ccc(Cl)cc3)cc3cccnc32)C1 (stereo not drawn)")
5.25

[Q] Entry CC(=O)NC1CCN(c2cnc3c(c2)cc(C(=O)NCc2ccc(Cl)cc2)c(=O)n3CC(=O)N2CC(C)(C)C2)C1 (stereo not drawn) has what pIC50?
[A] 6.72

[Q] Quick one: CC1CN(C(=O)Cn2c(=O)c(C(=O)NCc3ccc(Cl)cc3)cc3c(-c4cnc(N)nc4)c(-c4cnn(C)c4)cnc32)C1
[A] 6.92

[Q] Also need CCn1cc(-c2c(O)cnc3c2cc(C(=O)NCc2ccc(Cl)cc2)c(=O)n3CC(=O)N2CC(C)(C)C2)cn1 , thanks.
[A] 6.80

Ref: ChEMBL document CHEMBL3886653
